From: paper PMC12864922

# Measured on: TDP-43 (Homo sapiens, UniProt Q13148 1-414)
# Sequence (Q13148 whole entry): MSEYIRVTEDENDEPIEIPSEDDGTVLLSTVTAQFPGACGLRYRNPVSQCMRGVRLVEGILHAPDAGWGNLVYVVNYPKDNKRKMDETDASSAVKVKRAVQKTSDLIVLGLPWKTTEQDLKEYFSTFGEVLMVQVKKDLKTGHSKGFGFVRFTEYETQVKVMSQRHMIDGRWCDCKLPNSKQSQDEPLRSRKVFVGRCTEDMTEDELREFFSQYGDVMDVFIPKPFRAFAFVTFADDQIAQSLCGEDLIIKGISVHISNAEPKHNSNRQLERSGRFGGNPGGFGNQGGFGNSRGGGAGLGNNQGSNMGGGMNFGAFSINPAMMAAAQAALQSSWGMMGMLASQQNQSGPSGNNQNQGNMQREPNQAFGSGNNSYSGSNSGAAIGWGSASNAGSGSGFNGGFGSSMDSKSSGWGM
# Assay explanation: RNA Bind-n-Seq with designed 260-mer pool; 25 mM Tris-HCl, 150 mM KCl, 3 mM MgCl2, BSA (printed 500 mg/mL), 20 units/mL SUPERase IN; pH not stated; 500 nM RNA pool, 1 h, 4 C; TDP-43 5, 50, 500 nM; high values mean tight binding
# Test parameters: protein: recombinant; tags: SBP (GST cleaved off with PreScission; pGEX-GST-SBP)
In all, about 9,900 sequences were measured (“r (bound/input frequency ratio)”: median about 0.7, highest 2% from about 6.5 on). The entries come from a sample that favours the highest values as a whole.

Binder	binding signal
ENSMUSG00000031028.480|Tub (ssRNA) RNA: GGGAGUUCUACAGUCCGACGAUCGCUUCGAUAUCCGCAUGCUAUGGUUCUGAGCAGGCGACUGUCAAGGAAGUGUGUUGUCAGUUCACUGGAGGAGGAGCUGAGAUGUGCACCCUUUUAAAUGAACAUGGGGUGGUGAUGGUGCCUUAACAAUCUUGACACUAAGGUGAAGCAAGCAAGUAAGGUGUGUGCCUCUGGGAAGACAGGAGUCGGAAGCCAAGGUGUGUGGCAACAGUCUGGAAGAGAGCUUUUGGUAAUCAUACCGUCUUCAGUGACAAGGCAACAAUGCUGUAAAGUGGGUUUGCUCUUGCGGUCGCACUAGUGUGGAAUUCUCGGGUGUCAAGG	6.51 R (bound/input frequency ratio)
